- Tested on: SC27B
- test description: qHTS profiling for inhibitors of Plasmodium falciparum proliferation (AID 504749); also: nearly all actives have a fitted effect of over 60% in size; also: potency is read from the fitted curve at half-maximal effect
- condition summary: P. falciparum in erythrocytes, SYBR Green DNA, 72 h; series mostly up to 28.7 µM
Results filed as inconclusive are left out. Active and inactive are the calls of the source. Calls follow the shape of the dose curve; as a rule, active = well fitted inhibition curve with a large enough effect; inconclusive = small, poorly fitted or top-dose-only effect; inactive = flat fitted curve, though single readings scatter.
quantity name: Potency

As a guide, the following entries are already answered.
COc1ccc2cc3[n+](cc2c1OC)CCc1cc2c(cc1-3)OCO2
1.26 µM (active)
CNNCc1ccc(C(=O)NC(C)C)cc1
inactive
C1CCC(C(CC2CCCCN2)C2CCCCC2)CC1 (stereo unspecified)
7.94 µM (active)
Cc1noc(NS(=O)(=O)c2ccc(N)cc2)c1C
inactive

Below are 5 molecules. Give each one its Potency.
1. Cc1oc(=O)oc1CN1CCN(c2cc3c(cc2F)c(=O)c(C(=O)O)c2n3C(C)S2)CC1 (stereo unspecified)
2. Nc1[nH]c(=O)ncc1F
3. N[C@@H](C(=O)N[C@@H]1C(=O)N2C(C(=O)O)=C(Cl)CS[C@H]12)c1ccccc1
4. CN1CCN(c2c(F)cc3c(=O)c(C(=O)O)cn4c3c2OCN4C)CC1
5. CC1=CC(=O)c2ccccc2C1=O

**Result**
["8.91 µM (active)", "inactive", "inactive", "inactive", "inactive"]

Below are 7 molecules. Give each one its Potency.
1. COc1c(N2CCNC(C)C2)c(F)cc2c(=O)c(C(=O)O)cn(C3CC3)c12 (stereo unspecified)
2. C#CCN[C@@H]1CCc2ccccc21
3. CC(C)(Sc1cc(C(C)(C)C)c(O)c(C(C)(C)C)c1)Sc1cc(C(C)(C)C)c(O)c(C(C)(C)C)c1
4. Nc1nc(N)nc(-c2cc(Cl)ccc2Cl)n1
5. Nc1nc(N)c2nc(CNc3ccc(C(=O)NC(CCC(=O)O)C(=O)O)cc3)cnc2n1 (stereo unspecified)
6. O=C(O)c1cn(C2CC2)c2cc(N3CCNCC3)c(F)cc2c1=O
7. Cn1nnc2c(C(N)=O)ncn2c1=O

**Result**
1. inactive
2. inactive
3. inactive
4. inactive
5. inactive
6. inactive
7. inactive

Each recorded value in this set is attributed to PubChem BioAssay (NCATS).
